# Assay Protocol: osmotic lysis modulators in infected erythrocytes, primary screen, PSAC antagonist project, cell-based, P. falciparum Indochina, OD700, 3 h (AID 1156)
# Stated Conditions: higher = more signal, called active from +8 up or from −8 down
Overview of reported z-score across a group of compounds:
Please give only the number in your answer, with no unit.

# annotated cases, reported z-score shown
O=C1C2C=CC(C(O)c3ccccn3)N(Nc3ccc([N+](=O)[O-])cc3)C2C(=O)N1c1ccccc1 (centres undefined); 0.809
C=C(CCCC)C(=O)CC[C@H](OC(=O)c1ccccc1-c1ccccc1C(=O)O)c1cccc(OCCO)c1; 1.97
COc1ccc(CCNC(=O)[C@@]2(c3ccc([N+](=O)[O-])cc3)CC(=O)N(C3CCCCC3)[C@@H]2c2ccc(CO)cc2I)cc1; 3.17

Asked: Let me know recorded z-score for `COc1ccc([Si](C)(C)[C@H]2[C@H](CC(=O)N3CCC[C@H]3CO)O[C@@]3(C(=O)N(C)c4ccccc43)[C@@H]2C)cc1` , thanks.
Given back: -0.0347

* * *

# Assayed System: Follistatin-related protein 3 (Homo sapiens) (UniProt O95633)
# Sequence (O95633 whole entry, looked up): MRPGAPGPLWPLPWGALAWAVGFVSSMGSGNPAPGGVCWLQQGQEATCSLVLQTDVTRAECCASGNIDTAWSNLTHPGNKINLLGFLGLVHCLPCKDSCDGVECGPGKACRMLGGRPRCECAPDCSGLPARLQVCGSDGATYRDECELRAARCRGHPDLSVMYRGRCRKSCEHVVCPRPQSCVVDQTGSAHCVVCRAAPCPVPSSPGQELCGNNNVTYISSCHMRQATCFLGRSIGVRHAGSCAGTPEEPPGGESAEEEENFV
# Assay Protocol: FSTL3 binders on small-molecule microarrays, primary screen, biochemical, small-molecule microarray, 635 nm fluorescence (AID 1105);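 note: score merges emission near 667 nm and signal to noise per printed spot across three slides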
# Stated Conditions: FSTL3 binding, higher = more signal
Readout: composite z-score
Lab note: record just the number, no unit beside it.

Field: example entries. Status: answers known.
CCOC(=O)C[C@H]1[C@H](OC(=O)c2ccc(-c3ccccc3)cc2)[C@@H](NC(=O)C2CCCCC2)c2cc(OCCCO)ccc2N1C(=O)Cc1ccc(OC)cc1; 0.217
COC(=O)[C@@]1(Cc2ccc(F)cc2)[C@H]2c3cc(C(=O)N(C)C)n(Cc4ccsc4Br)c3C[C@H]2CN1C(=O)c1ccccc1; 0.369
COc1ccc(C(=O)Nc2cccc(CN3C(=O)[C@]4(O[C@H](CC(=O)N(CCO)Cc5ccccc5)[C@@H]([Si](C)(C)c5ccc(OC)cc5)[C@@H]4C)c4ccccc43)c2)cc1; 0.702
Cc1ccc(S[C@]2(C(=O)NCC(C)C)CC(=O)N(C(C)C)[C@@H]2c2ccc(CO)cc2I)cc1; -0.573
CCN1C(=O)C2CC(=O)C3C(CN(S(=O)(=O)c4ccc(C)cc4)C3c3ccc(C)cc3)C2C1=O (stereo not given); -0.167

Asked: Enter recorded composite z-score with Follistatin-related protein 3 (Homo sapiens) (UniProt O95633) for `CCOC(=O)C[C@H]1[C@H](OC(=O)Cc2ccc3c(c2)OCO3)[C@@H](NC(=O)CC(C)C)c2cc(OCCCO)ccc2N1C(=O)c1ccc2ccccc2n1` here.
Given back: 1.19

Asked: Quote Follistatin-related protein 3 (Homo sapiens) (UniProt O95633) composite z-score for entry `C=C1C(=O)C=C2CN(C(=O)c3ccccc3)[C@@](Cc3ccc(F)cc3)(C(=O)OC)[C@@H]12` .
Given back: 1.06

Asked: # lookup: Follistatin-related protein 3 (Homo sapiens) (UniProt O95633) composite z-score, key = CCCCN1CC=CC23O[C@@H]4C=CCCOC(=O)C4[C@H]2C(=O)N(CCO)[C@@H]3C1=O (stereo not given in full)
Given back: -0.838

* * *

# Assay Protocol: modulators of HCV replicon luciferase signal, primary screen, HCV replication inhibitor project, Huh7 cells, luciferase reporter (AID 1109);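 note: huh7 hepatoma cells harbouring a luciferase neomycin HCV replicon reporter; luciferase luminescence as measure of HCV replicon replication; test concentration not given here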
# Stated Conditions: 48 h, higher = more signal
Binary classification by z-score, with -0.4 as an inclusive lower bound for yes; all other cases are no.

CCCC1(C(=O)OC)C=C2C(=C(C(C)C)C(=O)C2C)CN1 (stereo not given); no
CC1(C)OB(/C=C\CC(OC(=O)c2ccncc2)c2ccccc2)OC1(C)C (stereo not given); yes
CC(C)(C)OC(=O)N1[C@@H](C=C(Br)Br)COC1(C)C; yes

Asked: Does z-score meet or surpass -0.4 for `CC(=O)NCCCC[C@@H]1NC(=O)[C@H]2C[C@@H](C(=O)O)[C@@H](c3cccc(OCCO)c3)N2C1=O` ?
Given back: no

Asked: z-score >= -0.4 for `COC(=O)[C@H]1N=C(c2ccc(OCCCO)cc2)O[C@H]1c1ccccc1N=[N+]=[N-]` ?
Given back: no

// provenance: PubChem BioAssay
